system: HT29 colon; test: NCI-60 one-dose screen, 48 h (100 = growth as untreated, 0 = no growth, -100 = all killed); conditions: 10 µM unless noted
This is part of a sample that, as a whole, favours compounds with a hit. Of some 83,000 tested, about 20% had one in any assay.
compounds and their reported growth

{"compound": "O=C(/C=C/c1ccc(Cl)cc1)c1cccc(Nc2nc(Nc3ccccc3)nc(Nc3ccccc3)n2)c1", "growth, %": 99.1}
{"compound": "O=C(Nc1nc2ccc(F)cc2s1)c1cccnc1Nc1ccc(Cl)cc1", "growth, %": 30.1}
{"compound": "S=C1CCSC(=S)N1CCCN1C(=S)CCSC1=S", "growth, %": 67.8}
{"compound": "O=C(Nc1ccc(NC(=O)c2cc(=O)[nH]c3ccccc23)cc1)Nc1cccc(C(F)(F)F)c1", "growth, %": 67.8}
{"compound": "Cc1nc2sc(C(=O)Nc3ccccc3)c(N)c2cc1C(=O)c1ccccc1", "growth, %": 22.9}
{"compound": "CN(CCOc1ccc(C#N)cc1)CCOc1ccc(C#N)cc1", "growth, %": 88.7}
{"compound": "Cc1ccc(C(C(N)=O)C(C(N)=O)c2ccccc2)cc1 (stereo not given)", "growth, %": 109}
{"compound": "O=C(c1cc2ccccc2o1)c1nn(-c2ccccc2)/c(=N/N=Cc2cn(-c3ccccc3)nc2-c2cc3ccccc3oc2=O)s1", "growth, %": 107}
{"compound": "C[C@H](NC(=O)[C@@H](C)N)[C@H](Oc1ccc2c(cnn2-c2ccc(F)cc2)c1)c1ccc2c(c1)OCCO2", "growth, %": 2.47}
{"compound": "CCN(C(=O)N1CCN(c2cc3c(cc2F)c(=O)c(C(=O)O)cn3C2CC2)CC1)c1nc(-c2ccc(Cl)cc2)cs1", "growth, %": 5.63}

----------
test system: T-47D breast; test: NCI-60 one-dose screen, 48 h (100 = growth as untreated, 0 = no growth, -100 = all killed); conditions: 10 µM unless noted
About 83,000 compounds went through this panel and 20% of them were active in at least one assay; those are over-represented in the sample as a whole.
Please mark Fulfilled if the recorded growth is equal to or greater than 30%, and Not fulfilled if it falls below.

{"smilesText": "COc1cc(C(=O)n2nc(N3CCN(C)CC3)c3cc(N)ccc32)cc(OC)c1OC", "qualitativeLabel": "Fulfilled"}
{"smilesText": "CS(=O)(=O)C1=CN(CCO)C(=O)N2CCCN=C12", "qualitativeLabel": "Fulfilled"}
{"smilesText": "CCc1ccc(Oc2cn[nH]c2-c2ccc(OCCc3ccc(F)cc3)cc2O)cc1", "qualitativeLabel": "Fulfilled"}
{"smilesText": "Cc1ccc(Cc2cnc(NC(=O)c3cc(Br)cs3)s2)cc1", "qualitativeLabel": "Fulfilled"}
{"smilesText": "O=C(NNc1nccc(Nc2ccc(S(=O)(=O)Nc3ccncc3)cc2)n1)c1ccccc1", "qualitativeLabel": "Fulfilled"}
{"smilesText": "Cc1cccc2c1NC(=O)C2(c1ccc(O)cc1)c1ccc(O)cc1", "qualitativeLabel": "Not fulfilled"}
{"smilesText": "CCOC(=O)C#Cc1c(C(=O)OCC)nnn1[C@@H]1O[C@H](CO)[C@H]2OC3(CCCCC3)O[C@H]21", "qualitativeLabel": "Not fulfilled"}
{"smilesText": "N=C(N)c1ccc(-c2ccc(-c3ccc(F)cc3)o2)o1", "qualitativeLabel": "Not fulfilled"}
{"smilesText": "N#CCSc1nnc2n(Cc3ccccc3)c(=O)c3c4c(sc3n12)CCCC4", "qualitativeLabel": "Fulfilled"}
{"smilesText": "CNC(=O)c1c(NC(=O)c2ccc(C(F)(F)F)cc2)sc2c1CCC(=O)C2", "qualitativeLabel": "Not fulfilled"}
